targetOfAssay: T1, monovalent hVISTA-ECD (human VISTA extracellular domain with His tail) (human, UniProt Q9H7M9 33-193)
T1 construct: analyte flowed over captured antibody; also called huVISTA-His
T1 sequence (Q9H7M9 other isoform, or with tags, fused parts or gaps limits assumed): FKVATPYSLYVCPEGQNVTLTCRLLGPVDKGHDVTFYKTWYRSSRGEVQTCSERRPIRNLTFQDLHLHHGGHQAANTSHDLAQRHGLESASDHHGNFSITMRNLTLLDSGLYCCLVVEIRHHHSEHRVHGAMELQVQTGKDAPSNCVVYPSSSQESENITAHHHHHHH
assayName: SPR, pH 6.0
Experimental: Binding of several preparations of each of the '029 progeny clones and of the parent '029 antibodies, formatted as IgG1.3 antibodies, to human VISTA at pH 6.0 and 7.4 was measured by Surface plasmon resonance (SPR). SPR analysis was performed to measure koff and KD binding affinity measurements for VISTA Abs at acidic and neutral pHs using a Biacore® T100 instrument (GE Healthcare). […] The affinity constant, KD was calculated as the ratio of rate constants koff/kₒₙ for each VISTA antibody. […]
measuredProperty: kon (M⁻¹ s⁻¹)
# unit: M⁻¹ s⁻¹ | format: bare number

| binder | unitsOfMeasure | kon |
| --- | --- | --- |
| P1-064510 (41F11_Vk_A25E/V29D/A64G/R91T) (antibody, V domains shown, also called P1-064510-1) VH: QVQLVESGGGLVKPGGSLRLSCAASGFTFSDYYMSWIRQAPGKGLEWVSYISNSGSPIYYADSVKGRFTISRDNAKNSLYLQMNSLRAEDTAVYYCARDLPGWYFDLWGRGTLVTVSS VL: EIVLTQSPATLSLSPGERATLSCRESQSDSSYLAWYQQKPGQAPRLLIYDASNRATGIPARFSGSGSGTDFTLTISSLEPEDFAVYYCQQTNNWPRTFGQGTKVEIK | M⁻¹ s⁻¹ | 750000 |
| P1-065326 (41F11_VH_D31E/Y50W/S55E/L96E/Y100E VK_A64G) (antibody, V domains shown, Kabat positions; also called P1-065326-1) VH: QVQLVESGGGLVKPGGSLRLSCAASGFTFSEYYMSWIRQAPGKGLEWVSWISNSGEPIYYADSVKGRFTISRDNAKNSLYLQMNSLRAEDTAVYYCARDEPGWEFDLWGRGTLVTVSS VL: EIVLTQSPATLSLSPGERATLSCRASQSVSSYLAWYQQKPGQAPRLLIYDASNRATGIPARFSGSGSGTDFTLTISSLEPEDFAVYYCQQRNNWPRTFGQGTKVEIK | M⁻¹ s⁻¹ | 2.4e+06 |
| P1-064391 (41F11_HC_Mutant: D31E/Y50W/S55E/Y100E 41F11_LC_Mutant: V29D/A64G/R91T) (antibody, V domains shown, Kabat positions; also called P1-064391-1) VH: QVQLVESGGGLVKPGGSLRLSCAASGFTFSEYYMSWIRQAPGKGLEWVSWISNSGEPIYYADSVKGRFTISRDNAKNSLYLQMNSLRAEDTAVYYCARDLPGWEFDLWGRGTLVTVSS VL: EIVLTQSPATLSLSPGERATLSCRASQSDSSYLAWYQQKPGQAPRLLIYDASNRATGIPARFSGSGSGTDFTLTISSLEPEDFAVYYCQQTNNWPRTFGQGTKVEIK | M⁻¹ s⁻¹ | 2.7e+06 |
| P1-065333 (41F11_VH_T28P/Y50W/S55E/L96E/Y100E VK_A64G) (antibody, human IgG1, kappa, V domains shown, IgG1.3; also called P1-065333-1; VISTA.4 pH-independent progeny) VH: QVQLVESGGGLVKPGGSLRLSCAASGFPFSDYYMSWIRQAPGKGLEWVSWISNSGEPIYYADSVKGRFTISRDNAKNSLYLQMNSLRAEDTAVYYCARDEPGWEFDLWGRGTLVTVSS VL: EIVLTQSPATLSLSPGERATLSCRASQSVSSYLAWYQQKPGQAPRLLIYDASNRATGIPARFSGSGSGTDFTLTISSLEPEDFAVYYCQQRNNWPRTFGQGTKVEIKR | M⁻¹ s⁻¹ | 3.8e+06 |

Please look at the following binder next.
Q: Query (binder): P1-070976 (41F11_VH_T28P/Y50W/S55E/D95H/L96E/P97E/Y100E; Vk_A64G) (antibody, human IgG1, kappa, V domains shown, IgG1.3; also called P1-070976-7; acidic pH selective VISTA.4 progeny) VH: QVQLVESGGGLVKPGGSLRLSCAASGFPFSDYYMSWIRQAPGKGLEWVSWISNSGEPIYYADSVKGRFTISRDNAKNSLYLQMNSLRAEDTAVYYCARHEEGWEFDLWGRGTLVTVSS VL: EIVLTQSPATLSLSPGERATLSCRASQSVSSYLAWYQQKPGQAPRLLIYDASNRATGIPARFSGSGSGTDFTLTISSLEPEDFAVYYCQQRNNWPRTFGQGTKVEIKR ; field requested: kon
Ans: 190000
